Readings of ND50 antibody conc. (PRNT with MERS-CoV) for the listed binders
Target: T1, MERS-CoV spike protein on live MERS-CoV (EMC, KNIH-002, KNIH-016 and KNIH-042 strains) (MERS-CoV)
T1 chain: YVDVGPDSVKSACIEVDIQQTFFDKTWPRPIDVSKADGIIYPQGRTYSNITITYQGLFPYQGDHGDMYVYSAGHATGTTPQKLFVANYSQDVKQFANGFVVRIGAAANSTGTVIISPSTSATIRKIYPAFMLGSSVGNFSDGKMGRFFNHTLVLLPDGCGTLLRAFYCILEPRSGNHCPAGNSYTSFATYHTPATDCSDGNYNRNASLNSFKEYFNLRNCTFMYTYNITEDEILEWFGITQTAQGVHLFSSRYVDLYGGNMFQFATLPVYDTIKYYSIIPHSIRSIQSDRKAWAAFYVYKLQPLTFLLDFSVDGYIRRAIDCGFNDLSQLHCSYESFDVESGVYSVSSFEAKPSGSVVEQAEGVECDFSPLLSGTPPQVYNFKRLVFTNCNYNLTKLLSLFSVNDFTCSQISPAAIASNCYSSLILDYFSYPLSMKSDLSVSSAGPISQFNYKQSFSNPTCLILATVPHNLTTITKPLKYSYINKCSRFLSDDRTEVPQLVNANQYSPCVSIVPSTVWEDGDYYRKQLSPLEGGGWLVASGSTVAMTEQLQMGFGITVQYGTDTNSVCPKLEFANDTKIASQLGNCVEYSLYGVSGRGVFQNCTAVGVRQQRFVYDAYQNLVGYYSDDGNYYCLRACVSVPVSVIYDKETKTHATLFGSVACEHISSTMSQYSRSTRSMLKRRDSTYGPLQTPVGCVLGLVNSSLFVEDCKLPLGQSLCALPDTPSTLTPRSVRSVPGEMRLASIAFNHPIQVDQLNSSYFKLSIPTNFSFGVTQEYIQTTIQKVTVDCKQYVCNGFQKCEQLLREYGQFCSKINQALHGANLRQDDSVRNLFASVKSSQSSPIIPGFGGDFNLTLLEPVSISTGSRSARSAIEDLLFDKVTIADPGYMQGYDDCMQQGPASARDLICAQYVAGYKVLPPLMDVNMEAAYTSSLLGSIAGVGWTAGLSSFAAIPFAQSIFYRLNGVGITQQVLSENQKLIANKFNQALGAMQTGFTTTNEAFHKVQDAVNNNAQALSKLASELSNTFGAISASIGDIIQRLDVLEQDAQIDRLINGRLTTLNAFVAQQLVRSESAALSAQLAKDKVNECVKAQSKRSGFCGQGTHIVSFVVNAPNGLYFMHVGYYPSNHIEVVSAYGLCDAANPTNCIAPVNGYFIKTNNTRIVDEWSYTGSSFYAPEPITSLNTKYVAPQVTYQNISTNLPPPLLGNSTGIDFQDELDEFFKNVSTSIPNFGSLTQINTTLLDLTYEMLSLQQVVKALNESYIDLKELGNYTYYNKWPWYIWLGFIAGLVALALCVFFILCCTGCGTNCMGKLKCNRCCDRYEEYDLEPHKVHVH
Assay: cell-based or functional assay
measured_quantity: ND50 antibody conc. (PRNT with MERS-CoV) (µg/mL)

77-A6 antibody (antibody, V domains shown) VH: EVQLLESGGGLVQPGGSLRLSCADSGLTFSSYAMSWVRQAPGKGLEWVSAISVSGGSTYYSDSVKGRFTISRDNSKNTLSLQMNSLRAEDTAVYYCVKARSIVGPFDYWGQGTLVTVSS VL: QSALTQPPSVSAAPGQKVTISCSGSSSNIGNNYVSWYQHLPGTAPKLLIYDNIMRPSGIPDRFSGSKSGTSATLGITGLQTGDEADYYCGTWDTSLSAVVFGGGTKLTVLG ... 0.1
90-E5 antibody (antibody, V domains shown) VH: QVQLVQSGAEVKKPGSSVKVSCKASGGTFSSYTINWVRQAPGQGLEWMGGIIPIFGTANYAQKFQGRVTITADASTSTAYMELSSLRSEDTAVYYCARVLLRSSSWFSSNWFDPWGQGTLVTVSS VL: QSVLTQPPSVSGAPGQRVTISCTGSSSNIGAGYDVHWYQQLPGTAPKVLIYGNSNRPSGVPDRFSGSKSDTSASLAITGLQAEDEADYYCQSYDSSLSVVFGGGTKLTVLG ... 1.51
90-B2 antibody (antibody, V domains shown) VH: QVQLQESGPGLVKPSETLSLTCTVSGGSISSSSYYWGWIRQPPGKGLEWIGSIYYSGNTYYNPSLKSRVTISVDTSKNHFSLRLSSVTAADTAVYFCARSLPHYDSTGYLLYWGQGTLVTVSS VL: EIVLTQSPATLSLSPGGRATLSCRASQSVSRYLAWYQQKPGRAPRLLIYDASNRAPGIPARFSGSGSGTDFTLTISSLEPEDFAVYYCQQRSNWPQTTFGPGTKVDIKR ... 0.25
